EXPERIMENTAL TARGET: mouse mNtcp (Mus musculus, UniProt O08705)
Construct: stably transfected with the full open reading frames of human NTCP, ASBT, SOAT, OATP1B1, and OATP1B3 as well as mouse mNtcp and mAsbt; expressed in transfected cells
Sequence (O08705 whole entry): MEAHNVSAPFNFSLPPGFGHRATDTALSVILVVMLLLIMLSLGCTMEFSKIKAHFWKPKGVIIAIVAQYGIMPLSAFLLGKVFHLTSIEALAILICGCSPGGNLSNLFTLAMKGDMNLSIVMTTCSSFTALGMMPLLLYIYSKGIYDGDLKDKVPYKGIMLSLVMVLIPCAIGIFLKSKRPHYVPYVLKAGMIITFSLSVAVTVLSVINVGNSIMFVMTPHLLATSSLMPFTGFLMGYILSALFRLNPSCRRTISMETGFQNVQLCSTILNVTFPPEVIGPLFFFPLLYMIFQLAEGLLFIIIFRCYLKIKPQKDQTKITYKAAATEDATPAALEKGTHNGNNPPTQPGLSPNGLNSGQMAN
ASSAY DETAILS: Quantitative uptake of 3-NBD-BA in carrier-expressing HEK293 cells (fluorescence reader)
Type: cell-based
TEST PARAMETERS: mNtcp-HEK293, 25 μM, 37 °C, +Na+ vs -Na+
ENDPOINT NAME: Specific transport ratio mNtcp (25µM/10 min uptake) (x x-fold)
Supply the numeric figure in x x-fold, leaving out any unit text.

[[record]]
molecule = "C[C@H](CCC(=O)NCC(=O)O)[C@H]1CC[C@H]2[C@@H]3[C@H](O)C[C@@H]4C[C@H](Nc5ccc([N+](=O)[O-])c6nonc56)CC[C@]4(C)[C@H]3C[C@H](O)[C@]12C [16d]"
assay_result = 26

[[record]]
molecule = "C[C@H](CCC(=O)NCCS(=O)(=O)[O-])[C@H]1CC[C@H]2[C@@H]3[C@H](O)C[C@@H]4C[C@@H](Nc5ccc([N+](=O)[O-])c6nonc56)CC[C@]4(C)[C@H]3C[C@H](O)[C@]12C.[Na+] [14a]"
assay_result = 20

[[record]]
molecule = "C[C@H](CCC(=O)NCC(=O)O)[C@H]1CC[C@H]2[C@@H]3[C@H](O)C[C@@H]4C[C@@H](Nc5ccc([N+](=O)[O-])c6nonc56)CC[C@]4(C)[C@H]3C[C@H](O)[C@]12C [16a]"
assay_result = 14


In the following, a different molecule is considered.
Inquiry: Using the record for C[C@H](CCC(=O)NCCS(=O)(=O)[O-])[C@H]1CC[C@H]2[C@@H]3[C@H](O)C[C@@H]4C[C@H](Nc5ccc([N+](=O)[O-])c6nonc56)CC[C@]4(C)[C@H]3C[C@H](O)[C@]12C.[Na+] [14d] , report its Specific transport ratio mNtcp (25µM/10 min uptake).
Reply text: 30

----------
EXPERIMENTAL TARGET: mouse mNtcp (Mus musculus)
Construct: stably transfected with the full open reading frames of human NTCP, ASBT, SOAT, OATP1B1, and OATP1B3 as well as mouse mNtcp and mAsbt; expressed in transfected cells
ASSAY DETAILS: Transport kinetics of conjugated 3-NBD-BA (concentration-dependent uptake)
Format: cell-based
TEST PARAMETERS: mNtcp-HEK293, 10 min uptake, 37 °C, specific (Na+-dependent) uptake
ENDPOINT NAME: K m mNtcp (µM)
Supply the numeric figure in µM, leaving out any unit text.

Observe how each entry below is paired with its result.
[[record]]
molecule = "C[C@H](CCC(=O)NCCS(=O)(=O)[O-])[C@H]1CC[C@H]2[C@@H]3[C@H](O)C[C@@H]4C[C@H](Nc5ccc([N+](=O)[O-])c6nonc56)CC[C@]4(C)[C@H]3C[C@H](O)[C@]12C.[Na+] [14d]"
assay_result = 9.5

[[record]]
molecule = "C[C@H](CCC(=O)NCCS(=O)(=O)[O-])[C@H]1CC[C@H]2[C@@H]3[C@H](O)C[C@@H]4C[C@@H](Nc5ccc([N+](=O)[O-])c6nonc56)CC[C@]4(C)[C@H]3C[C@H](O)[C@]12C.[Na+] [14a]"
assay_result = 20.6

[[record]]
molecule = "C[C@H](CCC(=O)NCC(=O)O)[C@H]1CC[C@H]2[C@@H]3[C@H](O)C[C@@H]4C[C@H](Nc5ccc([N+](=O)[O-])c6nonc56)CC[C@]4(C)[C@H]3C[C@H](O)[C@]12C [16d]"
assay_result = 5.2


In the following, a different molecule is considered.
Inquiry: Using the record for C[C@H](CCC(=O)NCC(=O)O)[C@H]1CC[C@H]2[C@@H]3[C@H](O)C[C@@H]4C[C@@H](Nc5ccc([N+](=O)[O-])c6nonc56)CC[C@]4(C)[C@H]3C[C@H](O)[C@]12C [16a] , report its K m mNtcp.
Reply text: 17.2

----------
EXPERIMENTAL TARGET: human ASBT (Homo sapiens, UniProt Q12908)
Sequence (Q12908 whole entry): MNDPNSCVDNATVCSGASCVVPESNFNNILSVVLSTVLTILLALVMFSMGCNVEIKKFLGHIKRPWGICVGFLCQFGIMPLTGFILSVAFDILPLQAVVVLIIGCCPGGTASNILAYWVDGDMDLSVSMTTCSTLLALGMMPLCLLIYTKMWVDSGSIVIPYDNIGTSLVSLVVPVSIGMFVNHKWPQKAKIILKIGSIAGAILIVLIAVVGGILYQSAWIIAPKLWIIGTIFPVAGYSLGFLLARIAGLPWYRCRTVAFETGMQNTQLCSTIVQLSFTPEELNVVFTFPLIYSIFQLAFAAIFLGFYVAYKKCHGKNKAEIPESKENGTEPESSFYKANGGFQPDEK
ENDPOINT NAME: pIC50
# pIC50: negative log10 of molar concentration; output just the value

Inquiry: Using the record for Cc1c(C)c2c(c(C)c1O)CCC(C)(COc1ccc(CC3SC(=O)NC3=O)cc1)O2 (stereo not shown) , report its pIC50.
Reply text: 4.71

----------
ASSAY DETAILS: Excitation-emission spectra of the 3-NBD-BA
Format: physicochemical
TEST PARAMETERS: NaCl-transport buffer, 1 pM compound concentration
ENDPOINT NAME: Excitation peak wavelength (ExPeak) (nm)
Supply the numeric figure in nm, leaving out any unit text.

Observe how each entry below is paired with its result.
[[record]]
compound = "C[C@H](CCC(=O)O)[C@H]1CC[C@H]2[C@@H]3[C@H](O)C[C@@H]4C[C@@H](Nc5ccc([N+](=O)[O-])c6nonc56)CC[C@]4(C)[C@H]3C[C@H](O)[C@]12C [6a]"
endpoint_name = "Excitation peak wavelength (ExPeak)"
assay_result = 468

[[record]]
compound = "C[C@H](CCC(=O)NCC(=O)O)[C@H]1CC[C@H]2[C@@H]3[C@H](O)C[C@@H]4C[C@@H](Nc5ccc([N+](=O)[O-])c6nonc56)CC[C@]4(C)[C@H]3C[C@H](O)[C@]12C [16a]"
endpoint_name = "Excitation peak wavelength (ExPeak)"
assay_result = 468

[[record]]
compound = "C[C@H](CCC(=O)NCCS(=O)(=O)[O-])[C@H]1CC[C@H]2[C@@H]3[C@H](O)C[C@@H]4C[C@H](Nc5ccc([N+](=O)[O-])c6nonc56)CC[C@]4(C)[C@H]3C[C@H](O)[C@]12C.[Na+] [14d]"
endpoint_name = "Excitation peak wavelength (ExPeak)"
assay_result = 468

[[record]]
compound = "C[C@H](CCC(=O)O)[C@H]1CC[C@H]2[C@@H]3[C@H](O)C[C@@H]4C[C@H](Nc5ccc([N+](=O)[O-])c6nonc56)CC[C@]4(C)[C@H]3C[C@H](O)[C@]12C [6d]"
endpoint_name = "Excitation peak wavelength (ExPeak)"
assay_result = 468

[[record]]
compound = "C[C@H](CCC(=O)NCCS(=O)(=O)[O-])[C@H]1CC[C@H]2[C@@H]3[C@H](O)C[C@@H]4C[C@@H](Nc5ccc([N+](=O)[O-])c6nonc56)CC[C@]4(C)[C@H]3C[C@H](O)[C@]12C.[Na+] [14a]"
endpoint_name = "Excitation peak wavelength (ExPeak)"
assay_result = 468


In the following, a different compound is considered.
Inquiry: Using the record for C[C@H](CCC(=O)NCC(=O)O)[C@H]1CC[C@H]2[C@@H]3[C@H](O)C[C@@H]4C[C@H](Nc5ccc([N+](=O)[O-])c6nonc56)CC[C@]4(C)[C@H]3C[C@H](O)[C@]12C [16d] , report its Excitation peak wavelength (ExPeak).
Reply text: 468

----------
EXPERIMENTAL TARGET: mouse mAsbt (Mus musculus, UniProt P70172)
Sequence (P70172 whole entry): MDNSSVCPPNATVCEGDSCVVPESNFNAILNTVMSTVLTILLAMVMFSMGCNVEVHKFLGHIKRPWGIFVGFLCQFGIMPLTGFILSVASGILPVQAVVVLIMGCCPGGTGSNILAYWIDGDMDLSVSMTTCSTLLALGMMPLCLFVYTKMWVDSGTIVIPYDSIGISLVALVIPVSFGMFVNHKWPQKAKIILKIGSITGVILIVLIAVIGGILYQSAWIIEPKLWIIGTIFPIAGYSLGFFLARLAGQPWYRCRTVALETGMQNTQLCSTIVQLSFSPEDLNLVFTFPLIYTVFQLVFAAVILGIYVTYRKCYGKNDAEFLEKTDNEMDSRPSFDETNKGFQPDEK
ENDPOINT NAME: IC50 (µM)
Supply the numeric figure in µM, leaving out any unit text.

Inquiry: Using the record for Cc1c(C)c2c(c(C)c1O)CCC(C)(COc1ccc(CC3SC(=O)NC3=O)cc1)O2 (stereo not shown) [troglitazone] , report its IC50.
Reply text: 18.9

----------
ASSAY DETAILS: logP(o/w), octanol/water partition
TEST PARAMETERS: 1-octanol/water, LogP(o/w), 1:1 mixture of water and 1-octanol, fluorescence detection or liquid scintillation
ENDPOINT NAME: logP
Answer as a number with no unit attached.

Observe how each entry below is paired with its result.
[[record]]
molecule = "C[C@H](CCC(=O)NCCS(=O)(=O)[O-])[C@H]1CC[C@H]2[C@@H]3[C@H](O)C[C@@H]4C[C@@H](Nc5ccc([N+](=O)[O-])c6nonc56)CC[C@]4(C)[C@H]3C[C@H](O)[C@]12C.[Na+] [14a]"
endpoint_name = "logP"
assay_result = 0.14

[[record]]
molecule = "C[C@H](CCC(=O)NCC(=O)O)[C@H]1CC[C@H]2[C@@H]3[C@H](O)C[C@@H]4C[C@@H](Nc5ccc([N+](=O)[O-])c6nonc56)CC[C@]4(C)[C@H]3C[C@H](O)[C@]12C [16a]"
endpoint_name = "logP"
assay_result = -0.01

[[record]]
molecule = "C[C@H](CCC(=O)O)[C@H]1CC[C@H]2[C@@H]3[C@H](O)C[C@@H]4C[C@H](Nc5ccc([N+](=O)[O-])c6nonc56)CC[C@]4(C)[C@H]3C[C@H](O)[C@]12C"
endpoint_name = "logP"
assay_result = 2.8


Inquiry: Using the record for C[C@H](CCC(=O)NCCS(=O)(=O)[O-])[C@H]1CC[C@H]2[C@@H]3[C@H](O)C[C@@H]4C[C@H](Nc5ccc([N+](=O)[O-])c6nonc56)CC[C@]4(C)[C@H]3C[C@H](O)[C@]12C.[Na+] [14d] , report its logP.
Reply text: 0.03

Inquiry: Using the record for C[C@H](CCC(=O)NCC(=O)O)[C@H]1CC[C@H]2[C@@H]3[C@H](O)C[C@@H]4C[C@H](Nc5ccc([N+](=O)[O-])c6nonc56)CC[C@]4(C)[C@H]3C[C@H](O)[C@]12C [16d] , report its logP.
Reply text: 0.462

Taken from paper PMC12169615.
